experimental.target: P2X7 (Homo sapiens)
protocol.details: Pore permeation assay (YO PRO dye uptake, BzATP-induced)
Assay type: cell-based
Parameters: expressed in transfected cells; host or cells: HEK293
particulars: HEK293 transfected with human P2X7 receptor, BzATP 10 uM, read-out: hP2X7 IC50
Protocol: Agonist-induced pore formation was determined by measuring cellular uptake of YO PRO fluorescence dye in HEK293 transfected with human P2X7 receptor. […] The viability of cells was determined by Trypan blue dye and the cells are plated @10,000 cell/well in 50 ul volume in a 384W BD Poly lysine coated plate and incubated overnight at 37 C. […] The uptake of YO PRO dye into the cells was measured using Envision Fluorescence plate reader instrument (Perkin Elmer).
pIC50: −log10 of the molar value.
endpoint: pIC50

Q: Endpoint output: pIC50 of COCCc1cc(C(=O)NCC2(O)CCCC(F)(F)C2)c2c(Cl)cccn12 (stereo not shown) [Compound 62] . Value?
Result: > 8.00

Q: Endpoint output: pIC50 of O=C(NCC1CCC(F)(F)CC1)c1cc(C2CCC2)n2cccc(Cl)c12 . Value?
Result: 7.00 to 8.00

Q: Endpoint output: pIC50 of O=C(NCC1(O)CCCC(C(F)(F)F)C1)c1cc(C2CCOCC2)n2cccc(Cl)c12 (stereo not shown) . Value?
Result: 6.00 to 6.30

Q: Endpoint output: pIC50 of O=C(NCC1(O)CCCC(F)(F)C1)c1cc(C2CCCO2)n2cccc(Cl)c12 (stereo not shown) . Value?
Result: > 8.00

* * *

experimental.target: P2X7 (Homo sapiens)
protocol.details: Pore permeation assay (YO PRO dye uptake, BzATP-induced)
Type: cell-based
Design: expressed in transfected cells; host or cells: HEK293
particulars: HEK293 transfected with human P2X7 receptor, BzATP 10 uM, read-out: hP2X7 IC50
pIC50: −log10 of the molar value.
Assignment: determine reported pIC50 for the given compounds.

Q: Endpoint output: pIC50 of COCCc1cc(C(=O)NCC2CC(C)CC(F)(F)C2)c2c(Cl)cccn12 (centres unmarked) . Value?
Result: 7.00 to 8.00

Q: Endpoint output: pIC50 of COCCc1cc(C(=O)NCC2(O)CCC(F)(F)CC2)c2c(C)cccn12 . Value?
Result: 6.30 to 7.00

Q: Endpoint output: pIC50 of C[C@@H]1CCC[C@](O)(CNC(=O)c2cc(C3CCOCC3)n3cccc(Cl)c23)C1 . Value?
Result: 7.00 to 8.00

Q: Endpoint output: pIC50 of COCCc1cc(C(=O)NCC2CCC(F)(F)CC2)c2c(C(F)(F)F)cccn12 . Value?
Result: 6.30 to 7.00

Q: Endpoint output: pIC50 of COCCc1cc(C(=O)NCC2(O)CCC(F)(F)C(C)C2)c2c(Cl)cccn12 (centres unmarked) . Value?
Result: 7.00 to 8.00

Q: Endpoint output: pIC50 of CC1CC(O)(CNC(=O)c2cc(C3CCOC3)n3cccc(Cl)c23)CCC1(F)F (centres unmarked) . Value?
Result: 6.30 to 7.00

Q: Endpoint output: pIC50 of CCOCCc1cc(C(=O)NC[C@@]2(O)CCC[C@@H](C)C2)c2c(Cl)cccn12 . Value?
Result: 7.00 to 8.00

Q: Endpoint output: pIC50 of O=C(NCC1(O)CCC(F)(F)CC1)c1cc(C2CCC2)n2cccc(Cl)c12 . Value?
Result: 7.00 to 8.00

Q: Endpoint output: pIC50 of COCCc1cc(C(=O)NC[C@]2(O)CCCC(F)(F)C2)c2c(Cl)cccn12 . Value?
Result: 7.00 to 8.00

Q: Endpoint output: pIC50 of COCCc1cc(C(=O)NCC2CCCC(F)(F)C2)c2c(Cl)cccn12 (centres unmarked) . Value?
Result: 7.00 to 8.00

Q: Endpoint output: pIC50 of O=C(NCC1CCC(F)(F)CC1)c1cc(C2(O)COC2)n2cccc(Cl)c12 . Value?
Result: 6.30 to 7.00

Q: Endpoint output: pIC50 of O=C(NCC1(O)CCCC(F)(F)C1)c1cc(C2CCC2)n2cccc(Cl)c12 (centres unmarked) . Value?
Result: 7.00 to 8.00

Q: Endpoint output: pIC50 of COCCc1cc(C(=O)NCC2(O)CCCC3(CC3)C2)c2c(Cl)cccn12 (centres unmarked) . Value?
Result: 6.30 to 7.00

Q: Endpoint output: pIC50 of O=C(NCC1CCC(F)(F)CC1)c1cc(C2=CCOC2)n2cccc(Cl)c12 . Value?
Result: 6.30 to 7.00

* * *

Assignment: determine reported pIC50 for the given compounds.
experimental.target: P2X7 (Homo sapiens, UniProt Q99572)
Sequence (Q99572 whole entry): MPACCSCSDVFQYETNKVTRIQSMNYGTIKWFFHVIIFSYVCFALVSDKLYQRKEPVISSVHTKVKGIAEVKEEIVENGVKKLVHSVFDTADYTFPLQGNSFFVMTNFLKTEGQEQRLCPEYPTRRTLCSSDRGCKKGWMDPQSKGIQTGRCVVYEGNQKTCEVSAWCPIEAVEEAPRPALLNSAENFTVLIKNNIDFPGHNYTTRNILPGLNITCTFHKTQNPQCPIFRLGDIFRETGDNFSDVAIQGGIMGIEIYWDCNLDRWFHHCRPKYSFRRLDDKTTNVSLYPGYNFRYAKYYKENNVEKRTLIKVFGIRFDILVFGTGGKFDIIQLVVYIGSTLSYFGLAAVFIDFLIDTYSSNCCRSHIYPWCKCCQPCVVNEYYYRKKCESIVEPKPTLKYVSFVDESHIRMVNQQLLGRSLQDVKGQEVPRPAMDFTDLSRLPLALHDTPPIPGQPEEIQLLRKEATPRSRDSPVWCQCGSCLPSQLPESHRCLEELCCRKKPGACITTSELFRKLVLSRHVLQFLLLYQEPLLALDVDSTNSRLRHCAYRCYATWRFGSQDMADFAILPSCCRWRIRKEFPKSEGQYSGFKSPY
protocol.details: IL-1β release assay in THP-1 cells (sandwich ELISA, BzATP-stimulated)
Format: cell-based
Design: endogenous in cells; host or cells: THP-1 cells (PMA-differentiated, LPS-primed)
particulars: LPS primed, 0.8 mM BzATP, mature IL-1β release, read-out: hTHP-1/IL-ib IC50
pIC50: −log10 of the molar value.

Q: Endpoint output: pIC50 of O=C(NCC1(O)CCC(F)(F)CC1)c1cc(C2CCCO2)n2cccc(Cl)c12 (stereo not drawn) [Compound 48] . Value?
Result: 7.00 to 8.00

Q: Endpoint output: pIC50 of O=C(NCC1CCCCC1)c1cc(CCO)n2cccc(Cl)c12 [Compound 15] . Value?
Result: 6.30 to 7.00

Q: Endpoint output: pIC50 of COCCc1cc(C(=O)NCCC2(O)CCCC2)c2c(Cl)cccn12 [Compound 59] . Value?
Result: < 6.00
